Biological target: T1, CD27 expressed on the cell surface (HT1080_CD27 cells) (human, UniProt P26842 20-260); also: test concentration or dose not given here
T1 sequence (looked up): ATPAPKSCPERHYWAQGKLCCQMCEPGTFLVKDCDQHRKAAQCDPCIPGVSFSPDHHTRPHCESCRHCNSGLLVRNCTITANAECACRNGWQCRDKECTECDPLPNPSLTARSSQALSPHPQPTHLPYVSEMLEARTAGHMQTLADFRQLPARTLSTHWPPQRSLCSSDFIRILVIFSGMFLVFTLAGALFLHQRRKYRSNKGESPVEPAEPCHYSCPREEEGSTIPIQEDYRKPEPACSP
Experiment: cell-based or functional assay
Overview of reported IL-8, cross-linked by F(ab')2 fragment [abs. corr.] across a group of binders:
Could you give me the number in abs. corr.? Just the number is fine.

P018.S.09.A.A03 (antibody, V domains shown, V regions on human Ig constant parts; also called AB27_144) VH: QEQLVESGGGLVQPEGSLTLTCTASGFSFSSSYYMCWVRQAPGKGPEWIACIYTYSGDTDYANWAKGRFTISKTSSTTVTLQMTSLTAADTATYFCAKAGYGGYGYPIFNLWGPGTLVTVSS VL: AFELTQTPSSVEAAVGGTVTIKCQASQSIGSSLAWYQQKPGQRPKLLMYYVSTLASGVSSRFKGSGSGTEFTLTISDLESADAATYYCQSYYGSGTTVFWAFGGGTEVVVK; 1.54
P018.S.02.A.G01 (antibody, V domains shown, V regions on human Ig constant parts; also called AB27_37) VH: QSLEESGGRLVTPGTPLTLTCTVSGIDLSSNAMNWVRQAPGKGLEWIGIIYTSGSTYYASWVKGRFTISRTSTTVDLEMTSLTTEDTATYFCARGVTIDWFDLWGQGTLVTVSS VL: AAVLTQTPSSVSAAVGGTVTINCQSSPSVYSNYLSWFQQKPGQPPKLLIYGASTLTSGVPSRFKGSGSGTQFTLTINDVQSDDAATYWCLGGYGDINDTTFGGGTEVVVK; 1.52
P018.S.01.A.D02 (antibody, V domains shown, V regions on human Ig constant parts; also called AB27_11) VH: QSLEESGGRLVTPGTPLTLTCTASGFSLSKYDMGWFRQAPGKGLEWIGMIGASDSTYYASWVKGRFTISKTSTTVDLRITSPTTEDTATYFCAREYPDARGYYYNLWGPGTPVTVSS VL: ALVMTQTPASVEAAVGGTVTINCQASQSISDLLAWYQQKPGQPPKPLIYDASDLASGVPSRFKGSGSGTQFTLTISGVQSDDAATYYCQQGYSITNVDNVFGGGTEVVVK; 1.67
P018.S.05.A.A02 (antibody, V domains shown, V regions on human Ig constant parts; also called AB27_80) VH: QSLEESGGRLVTPGTPLTLICTASGIDLSSYGMTWVRQAPGKGLEWIGIISTIGDTYYASWVKGRFTISKTSTTVDLKITSPTTEDTATYFCARYTNSGYAMMYYFNLWGQGTLVTVSS VL: DIVMTQTPASVEAAVGGTVTIKCQASQNIVNALAWYQQKLGQPPKLLIYVASYLASGVPSRFKGSGSGTEFTLTISDLESVDAATYYCQSYYYSSGTSYGQNAFGGGTEVVVK; 1.53

Okay, next one:
Q: Note down IL-8, cross-linked by F(ab')2 fragment [abs. corr.] recorded for P018.S.04.A.B03 (antibody, V domains shown, V regions on human Ig constant parts; also called AB27_67) VH: QSLEESGGRLVTPGTPLTLTCTASGFSLSSYDMSWVRQAPGKGLEWIGYIWSDGDTDYANWAIGRFTISKTSTTVDLKMTSPTTEDTATYFCARGYTNYDLWGQGTLVTVSS VL: AAVLTQTPSSVSAAVGGTVTISCQSSQSLYSDPYLSWHQQKPGQPPKRLIYQASTLASGVSSRFKGSGSGTEYTLTISDVQSDDAATYFCQGTYYSDGWYSDFGGGTEVVVK
Ans: 1.97
